Data origin: BigSolDB 2.1

Conditions: in methanol, 293.15 K
endpointLabel: solubility (mole fraction)

*Q* Report solubility (mole fraction), nothing else, for this molecule: C[C@@H]1O[C@@H](OC[C@H]2O[C@@H](Oc3c(-c4ccc(OCCO)c(OCCO)c4)oc4cc(OCCO)cc(O)c4c3=O)[C@H](O)[C@@H](O)[C@@H]2O)[C@H](O)[C@H](O)[C@H]1O
*A* 0.000291

* * *

Settings: in ethanol, 308.15 K
endpointLabel: solubility (mole fraction)

*Q* Report solubility (mole fraction), nothing else, for this compound: C[C@@H]1O[C@@H](OC[C@H]2O[C@@H](Oc3c(-c4ccc(OCCO)c(OCCO)c4)oc4cc(OCCO)cc(O)c4c3=O)[C@H](O)[C@@H](O)[C@@H]2O)[C@H](O)[C@H](O)[C@H]1O
*A* 0.000407

* * *

Conditions: in isobutanol, 313.15 K
endpointLabel: solubility (mole fraction)
Give the value as a plain number.

*Q* Report solubility (mole fraction), nothing else, for this compound: C[C@@H]1O[C@@H](OC[C@H]2O[C@@H](Oc3c(-c4ccc(OCCO)c(OCCO)c4)oc4cc(OCCO)cc(O)c4c3=O)[C@H](O)[C@@H](O)[C@@H]2O)[C@H](O)[C@H](O)[C@H]1O
*A* 0.000176

* * *

Conditions: in n-butanol, 323.15 K
endpointLabel: solubility (mole fraction)
Give the value as a plain number.

*Q* Report solubility (mole fraction), nothing else, for this molecule: C[C@@H]1O[C@@H](OC[C@H]2O[C@@H](Oc3c(-c4ccc(OCCO)c(OCCO)c4)oc4cc(OCCO)cc(O)c4c3=O)[C@H](O)[C@@H](O)[C@@H]2O)[C@H](O)[C@H](O)[C@H]1O
*A* 0.000494

* * *

Details: in isopropanol, 318.15 K
endpointLabel: solubility (mole fraction)
Give the value as a plain number.

*Q* Report solubility (mole fraction), nothing else, for this compound: C[C@@H]1O[C@@H](OC[C@H]2O[C@@H](Oc3c(-c4ccc(OCCO)c(OCCO)c4)oc4cc(OCCO)cc(O)c4c3=O)[C@H](O)[C@@H](O)[C@@H]2O)[C@H](O)[C@H](O)[C@H]1O
*A* 0.000403

* * *

Settings: in sec-butanol, 318.15 K
endpointLabel: solubility (mole fraction)
Give the value as a plain number.

*Q* Report solubility (mole fraction), nothing else, for this molecule: C[C@@H]1O[C@@H](OC[C@H]2O[C@@H](Oc3c(-c4ccc(OCCO)c(OCCO)c4)oc4cc(OCCO)cc(O)c4c3=O)[C@H](O)[C@@H](O)[C@@H]2O)[C@H](O)[C@H](O)[C@H]1O
*A* 0.000391

* * *

Conditions: in acetonitrile, 288.15 K
endpointLabel: solubility (mole fraction)
Give the value as a plain number.

*Q* Report solubility (mole fraction), nothing else, for this compound: C[C@@H]1O[C@@H](OC[C@H]2O[C@@H](Oc3c(-c4ccc(OCCO)c(OCCO)c4)oc4cc(OCCO)cc(O)c4c3=O)[C@H](O)[C@@H](O)[C@@H]2O)[C@H](O)[C@H](O)[C@H]1O
*A* 8e-06

* * *

Conditions: in isopropanol, 323.15 K
endpointLabel: solubility (mole fraction)
Give the value as a plain number.

*Q* Report solubility (mole fraction), nothing else, for this compound: C[C@@H]1O[C@@H](OC[C@H]2O[C@@H](Oc3c(-c4ccc(OCCO)c(OCCO)c4)oc4cc(OCCO)cc(O)c4c3=O)[C@H](O)[C@@H](O)[C@@H]2O)[C@H](O)[C@H](O)[C@H]1O
*A* 0.000519
